# ASSAY_TARGET: Ku protein (Ku70/Ku80 heterodimer) (Homo sapiens, UniProt P12956;P13010 P12956:2-609,P13010:2-732)
# Sequence (P12956 2-609, chain 1 of 2): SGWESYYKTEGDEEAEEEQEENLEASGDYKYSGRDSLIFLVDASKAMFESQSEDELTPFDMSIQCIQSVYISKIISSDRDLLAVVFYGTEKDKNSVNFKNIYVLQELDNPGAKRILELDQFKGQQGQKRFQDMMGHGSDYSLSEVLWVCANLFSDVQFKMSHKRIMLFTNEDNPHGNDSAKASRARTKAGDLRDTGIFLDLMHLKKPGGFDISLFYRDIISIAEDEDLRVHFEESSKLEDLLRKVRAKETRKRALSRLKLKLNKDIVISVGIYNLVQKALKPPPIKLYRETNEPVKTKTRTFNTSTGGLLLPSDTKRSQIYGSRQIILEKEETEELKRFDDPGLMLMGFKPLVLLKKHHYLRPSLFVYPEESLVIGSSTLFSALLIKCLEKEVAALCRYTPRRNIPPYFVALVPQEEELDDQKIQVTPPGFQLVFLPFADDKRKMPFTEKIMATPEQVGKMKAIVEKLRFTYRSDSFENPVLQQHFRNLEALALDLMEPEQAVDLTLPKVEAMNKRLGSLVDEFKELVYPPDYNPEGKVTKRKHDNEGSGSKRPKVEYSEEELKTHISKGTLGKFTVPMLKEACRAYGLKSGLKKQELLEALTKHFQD
# Sequence (P13010 2-732, chain 2 of 2): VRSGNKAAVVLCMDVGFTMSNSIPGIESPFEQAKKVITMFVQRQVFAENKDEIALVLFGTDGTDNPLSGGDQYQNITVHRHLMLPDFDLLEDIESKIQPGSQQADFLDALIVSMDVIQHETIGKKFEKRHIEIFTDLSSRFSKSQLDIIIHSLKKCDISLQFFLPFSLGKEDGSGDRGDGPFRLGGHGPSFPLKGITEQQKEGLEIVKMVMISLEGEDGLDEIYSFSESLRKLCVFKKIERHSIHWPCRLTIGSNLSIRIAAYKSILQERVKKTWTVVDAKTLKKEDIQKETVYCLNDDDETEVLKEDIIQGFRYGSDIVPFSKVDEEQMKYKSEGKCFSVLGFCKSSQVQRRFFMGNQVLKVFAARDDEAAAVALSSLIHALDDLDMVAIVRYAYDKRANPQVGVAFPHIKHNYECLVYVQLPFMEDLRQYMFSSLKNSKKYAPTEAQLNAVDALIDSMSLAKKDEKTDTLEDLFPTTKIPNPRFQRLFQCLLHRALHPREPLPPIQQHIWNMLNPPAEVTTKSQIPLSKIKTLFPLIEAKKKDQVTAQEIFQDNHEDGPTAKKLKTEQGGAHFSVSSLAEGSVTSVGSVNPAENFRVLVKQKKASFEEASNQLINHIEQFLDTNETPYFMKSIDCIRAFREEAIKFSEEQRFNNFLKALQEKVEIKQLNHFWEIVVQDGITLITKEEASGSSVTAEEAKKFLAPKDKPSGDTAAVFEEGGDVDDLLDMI
# PROTOCOL_DETAILS: EMSA
# CONDITION_NOTES: tags: none, purified from HeLa cell nuclear extracts
PROPERTY: pKd
// scale note: pKd = -log10(conc_M); give the bare number

Example cases with answers are listed next.
SC8 (ssRNA) RNA: GGGAGGAUAUUUUCUCAGACCGUAAGUCCUUCACUAAUGCUUACCAGACACACUAAGAACGUCACUUGCAGCAUCGUGAACUAGGAUC	9.22
SC2 (ssRNA) RNA: GGGAGGAUAUUUUCUCAGACCGUAACACGCUCUACAACAGAUUGCGAAUUAACUUACGCUUCAUAUUGCAGCAUCGUGAACUAGGAUC	9.10
#1-17 (ssRNA) RNA: GGGAGGAUAUUUUCUCAGACCGUAAUCCUUAUUUUAUGGCUUUCCCACGCACACAAGCGUCUGCGUUGCAGCAUCGUGAACUAGGAUC	8.49

Problem: I have this binder here, SC13 (ssRNA) RNA: GGGAGGAUAUUUUCUCAGACCGUAAACCUUUUUAGACGAACCUCAAAGUACAUUUAGUUGAAAACUUGCAGCAUCGUGAACUAGGAUC , and I need its recorded pKd.
Solution: 9.10

Problem: I have this binder here, #42 (ssRNA) RNA: GGGAGGAUAUUUUCUCAGACCGUAACAUCCUGGUACUCACUUCGACAUCGUACGUUCAAUCAUACUUGCAGCAUCGUGAACUAGGAUC , and I need its recorded pKd.
Solution: 8.35

Problem: I have this binder here, #84 (ssRNA) RNA: GGGAGGAUAUUUUCUCAGACCGUAAAUCCGCGUACCGGGCUCAAAUGUCACUAUAGUAGAAAGCAUUGCAGCAUCGUGAACUAGGAUC , and I need its recorded pKd.
Solution: 8.74

Problem: I have this binder here, SC9 (ssRNA) RNA: GGGAGGAUAUUUUCUCAGACCGUAAUGCCUUUAGCUGCGACAAUGAACAGCAUGACCUCACUACUUGCAGCAUCGUGAACUAGGAUC , and I need its recorded pKd.
Solution: 9.22

Problem: I have this binder here, SC5 (ssRNA) RNA: GGGAGGAUAUUUUCUCAGACCGUAACUUGAACAUGAUAGGCUUACCCAUAGACAGAUUGACCCUUUUGCAGCAUCGUGAACUAGGAUC , and I need its recorded pKd.
Solution: 8.70

Problem: I have this binder here, SC4 (ssRNA) RNA: GGGAGGAUAUUUUCUCAGACCGUAACCUAGUCUAAUCGAGGCUUUCCCAGUGACAAUGACCCACUUGCAGCAUCGUGAACUAGGAUC , and I need its recorded pKd.
Solution: 8.77

Problem: I have this binder here, #1-2 (ssRNA) RNA: GGGAGGAUAUUUUCUCAGACCGUAACAACACCUUGCUUUCCCAAUACCCUGAAAUACAGUCGGAUUUGCAGCAUCGUGAACUAGGAUC , and I need its recorded pKd.
Solution: 8.82

Problem: I have this binder here, SC3 (ssRNA) RNA: GGGAGGAUAUUUUCUCAGACCGUAACAUUACCACAGUUCUAGCAUCCCGCAAUGGUAAGUCCGCAUUGCAGCAUCGUGAACUAGGAUC , and I need its recorded pKd.
Solution: 9.10

Problem: I have this binder here, #85 (ssRNA) RNA: GGGAGGAUAUUUUCUCAGACCGUAACAAGUAUCACGCACUUUCCCAUUCACUGUUAGAGACUGAUUGCAGCAUCGUGAACUAGGAUC , and I need its recorded pKd.
Solution: 9.15

Problem: I have this binder here, SC12 (ssRNA) RNA: GGGAGGAUAUUUUCUCAGACCGUAACUCGCAACAUGACUUCGAAAGUUUAAUCGUUCUUGUCAAUUGCAGCAUCGUGAACUAGGAUC , and I need its recorded pKd.
Solution: 9.30
